- System: Acinetobacter baumannii strain 30
- TEST: Checkerboard assay (FICI) with antibiotics, A. baumannii
- Assay type: cell-based
- CONDITION_LABEL: checkerboard, in combination with Chp10-M1
QUANTITY_MEASURED: Antibiotic FIC

{"MOLECULE": "CCN1CCN(C(=O)N[C@@H](C(=O)N[C@@H]2C(=O)N3[C@@H]2SC(C)(C)[C@@H]3C(=O)O)c2ccccc2)C(=O)C1=O", "MEASURED_TARGET": "Acinetobacter baumannii strain 30", "QUANTITY_MEASURED": "Antibiotic FIC", "MEAS_VALUE": 0.25}
{"MOLECULE": "NC[C@H]1O[C@H](O[C@H]2[C@H](O)[C@@H](O[C@H]3O[C@H](CO)[C@@H](O)[C@H](N)[C@H]3O)[C@H](N)C[C@@H]2N)[C@H](N)C[C@@H]1O [tobramycin, reference compound]", "MEASURED_TARGET": "Acinetobacter baumannii strain 30", "QUANTITY_MEASURED": "Antibiotic FIC", "MEAS_VALUE": 0.25}
{"MOLECULE": "C[C@H]1COc2c(N3CCN(C)CC3)c(F)cc3c(=O)c(C(=O)O)cn1c23", "MEASURED_TARGET": "Acinetobacter baumannii strain 30", "QUANTITY_MEASURED": "Antibiotic FIC", "MEAS_VALUE": 0.25}
{"MOLECULE": "NCC[C@H](O)C(=O)N[C@@H]1C[C@H](N)[C@@H](O[C@H]2O[C@H](CN)[C@@H](O)[C@H](O)[C@H]2O)[C@H](O)[C@H]1O[C@H]1O[C@H](CO)[C@@H](O)[C@H](N)[C@H]1O", "MEASURED_TARGET": "Acinetobacter baumannii strain 30", "QUANTITY_MEASURED": "Antibiotic FIC", "MEAS_VALUE": 0.5}
{"MOLECULE": "C[C@H]1[C@H](NC(=O)/C(=N\\OC(C)(C)C(=O)O)c2csc(N)n2)C(=O)N1S(=O)(=O)O", "MEASURED_TARGET": "Acinetobacter baumannii strain 30", "QUANTITY_MEASURED": "Antibiotic FIC", "MEAS_VALUE": 0.25}
{"MOLECULE": "CC[C@H]1OC(=O)[C@H](C)[C@@H](O[C@H]2C[C@@](C)(OC)[C@@H](O)[C@H](C)O2)[C@H](C)[C@@H](O[C@@H]2O[C@H](C)C[C@H](N(C)C)[C@H]2O)[C@](C)(O)C[C@@H](C)CN(C)[C@H](C)[C@@H](O)[C@]1(C)O", "MEASURED_TARGET": "Acinetobacter baumannii strain 30", "QUANTITY_MEASURED": "Antibiotic FIC", "MEAS_VALUE": 0.5}
{"MOLECULE": "C[C@@H](O)[C@H]1C(=O)N2C(C(=O)O)=C(S[C@@H]3CN[C@H](C(=O)N(C)C)C3)[C@H](C)[C@H]12 [meropenem, reference compound]", "MEASURED_TARGET": "Acinetobacter baumannii strain 30", "QUANTITY_MEASURED": "Antibiotic FIC", "MEAS_VALUE": 0.125}

----------
- Test system: Acinetobacter baumannii strain 30
- TEST: Checkerboard assay (FICI) with antibiotics, A. baumannii
- Format: cell-based
- CONDITION_LABEL: checkerboard, in combination with Unp2-M1

{"COMPOUND": "NC[C@H]1O[C@H](O[C@H]2[C@H](O)[C@@H](O[C@H]3O[C@H](CO)[C@@H](O)[C@H](N)[C@H]3O)[C@H](N)C[C@@H]2N)[C@H](N)C[C@@H]1O [tobramycin, reference compound]", "MEASURED_TARGET": "Acinetobacter baumannii strain 30", "Antibiotic FIC": 0.25}
{"COMPOUND": "C[C@@H](O)[C@H]1C(=O)N2C(C(=O)O)=C(S[C@@H]3CN[C@H](C(=O)N(C)C)C3)[C@H](C)[C@H]12 [meropenem, reference compound]", "MEASURED_TARGET": "Acinetobacter baumannii strain 30", "Antibiotic FIC": 0.25}
{"COMPOUND": "CC[C@H]1OC(=O)[C@H](C)[C@@H](O[C@H]2C[C@@](C)(OC)[C@@H](O)[C@H](C)O2)[C@H](C)[C@@H](O[C@@H]2O[C@H](C)C[C@H](N(C)C)[C@H]2O)[C@](C)(O)C[C@@H](C)CN(C)[C@H](C)[C@@H](O)[C@]1(C)O", "MEASURED_TARGET": "Acinetobacter baumannii strain 30", "Antibiotic FIC": 0.5}
{"COMPOUND": "C[C@H]1COc2c(N3CCN(C)CC3)c(F)cc3c(=O)c(C(=O)O)cn1c23", "MEASURED_TARGET": "Acinetobacter baumannii strain 30", "Antibiotic FIC": 0.25}
{"COMPOUND": "C[C@H]1[C@H](NC(=O)/C(=N\\OC(C)(C)C(=O)O)c2csc(N)n2)C(=O)N1S(=O)(=O)O", "MEASURED_TARGET": "Acinetobacter baumannii strain 30", "Antibiotic FIC": 0.25}
{"COMPOUND": "CCN1CCN(C(=O)N[C@@H](C(=O)N[C@@H]2C(=O)N3[C@@H]2SC(C)(C)[C@@H]3C(=O)O)c2ccccc2)C(=O)C1=O", "MEASURED_TARGET": "Acinetobacter baumannii strain 30", "Antibiotic FIC": 0.25}
{"COMPOUND": "NCC[C@H](O)C(=O)N[C@@H]1C[C@H](N)[C@@H](O[C@H]2O[C@H](CN)[C@@H](O)[C@H](O)[C@H]2O)[C@H](O)[C@H]1O[C@H]1O[C@H](CO)[C@@H](O)[C@H](N)[C@H]1O", "MEASURED_TARGET": "Acinetobacter baumannii strain 30", "Antibiotic FIC": 0.5}

----------
# reported MIC; entries follow
- Test system: Pseudomonas aeruginosa
- TEST: microbe, parasite or virus in culture
- Assay type: cell-based
- CONDITION_LABEL: P. aeruginosa (PAO1, alternate source, HER1018), RSC 490; CAA without human serum
QUANTITY_MEASURED: MIC

{"CONSTRUCT_SEQUENCE": "MARRRYRLPRRRSRRLFSRTALRMHPRNRLRRIMRGGIRF [Chp6]", "MEAS_VALUE": "1 µg/mL"}
{"CONSTRUCT_SEQUENCE": "MVRRRRLRRRISRRIFRRTVARVGRRRRSFRGGIRF [Chp1]", "MEAS_VALUE": "8 µg/mL"}
{"CONSTRUCT_SEQUENCE": "MARSRRRMSKRSSRRSFRKYAKTHKRNFKARSMRGGIRL [Ecp1]", "MEAS_VALUE": "2 µg/mL"}
{"CONSTRUCT_SEQUENCE": "MARSRRRMSKRSSRRSFRKYAKSHKKNFKARSMRGGIRL [Ecp2]", "MEAS_VALUE": "2 µg/mL"}
{"CONSTRUCT_SEQUENCE": "MARRYRLSRRRSRRLFSRTALRMHRRNRLRRIMRGGIRF [Chp4]", "MEAS_VALUE": "4 µg/mL"}
{"CONSTRUCT_SEQUENCE": "MRLKMARRRYRLPRRRSRRLFSRTALRMHPRNRLRRIMRGGIRF [Chp2]", "MEAS_VALUE": "4 µg/mL"}

----------
- Tested on: P. aeruginosa strain CFS-1292
- TEST: Checkerboard assay (FICI) with antibiotics, P. aeruginosa
- Type: cell-based, Pseudomonas aeruginosa
- CONDITION_LABEL: combined with Chp2; P. aeruginosa CFS-1292
# reported Antibiotic FIC; entries follow

{"MOLECULE": "CC[C@H]1OC(=O)[C@H](C)[C@@H](O[C@H]2C[C@@](C)(OC)[C@@H](O)[C@H](C)O2)[C@H](C)[C@@H](O[C@@H]2O[C@H](C)C[C@H](N(C)C)[C@H]2O)[C@](C)(O)C[C@@H](C)CN(C)[C@H](C)[C@@H](O)[C@]1(C)O [Azithromycin]", "Antibiotic FIC": 0.25}
{"MOLECULE": "C[C@H]1COc2c(N3CCN(C)CC3)c(F)cc3c(=O)c(C(=O)O)cn1c23 [Levofloxacin]", "Antibiotic FIC": 0.25}
{"MOLECULE": "CCN1CCN(C(=O)N[C@@H](C(=O)N[C@@H]2C(=O)N3[C@@H]2SC(C)(C)[C@@H]3C(=O)O)c2ccccc2)C(=O)C1=O [Piperacillin]", "Antibiotic FIC": 0.5}
{"MOLECULE": "C[C@H]1[C@H](NC(=O)/C(=N\\OC(C)(C)C(=O)O)c2csc(N)n2)C(=O)N1S(=O)(=O)O [Aztreonam]", "Antibiotic FIC": 0.25}

----------
- Test system: carbapenem-resistant P. aeruginosa clinical isolate CFS-1292
- TEST: MIC by modified CLSI broth microdilution against P. aeruginosa CFS-1292 (CAA, CAA + human serum)
- Type: cell-based, Pseudomonas aeruginosa
- CONDITION_LABEL: 100% CAA; 1st run or single value
QUANTITY_MEASURED: MIC (μg/mL) against CFS-1292 in 100% CAA (1st run/2nd run) (µg/mL)

{"CONSTRUCT_SEQUENCE": "MRRYNVNKGKSAKKFRKQVSKTKVANLRSNPMRGGWRL [AGT915]", "MEASURED_TARGET": "carbapenem-resistant P. aeruginosa clinical isolate CFS-1292", "RELATION_SYMBOL": "=", "MEAS_VALUE": 2}
{"CONSTRUCT_SEQUENCE": "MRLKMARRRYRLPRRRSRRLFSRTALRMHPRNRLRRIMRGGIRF [Chp2]", "MEASURED_TARGET": "carbapenem-resistant P. aeruginosa clinical isolate CFS-1292", "RELATION_SYMBOL": "=", "MEAS_VALUE": 0.5}
{"CONSTRUCT_SEQUENCE": "MKRRKLSKKKSRKIFTRGAVNVKKRNLRARPMRGGFRI [Chp10]", "MEASURED_TARGET": "carbapenem-resistant P. aeruginosa clinical isolate CFS-1292", "RELATION_SYMBOL": "=", "MEAS_VALUE": 0.5}
{"CONSTRUCT_SEQUENCE": "MTKRDIEYRKALGLNPSEPLPKIVGAVTRHGATLKRPRVTALAR [SBR77]", "MEASURED_TARGET": "carbapenem-resistant P. aeruginosa clinical isolate CFS-1292", "RELATION_SYMBOL": "=", "MEAS_VALUE": 4}
{"CONSTRUCT_SEQUENCE": "MMKYRKKMSAKSSRKQFTKGAMKVKGKNFTKPMRGGIRL [Unp5]", "MEASURED_TARGET": "carbapenem-resistant P. aeruginosa clinical isolate CFS-1292", "RELATION_SYMBOL": "=", "MEAS_VALUE": 2}
{"CONSTRUCT_SEQUENCE": "MSKKRSRMSRRRSKKLFSKTALRTKSVNTRPPMRGGFRF [Chp8]", "MEASURED_TARGET": "carbapenem-resistant P. aeruginosa clinical isolate CFS-1292", "RELATION_SYMBOL": "=", "MEAS_VALUE": 0.5}
{"CONSTRUCT_SEQUENCE": "MSSTLCRWAVKALRCTRVYKEFIWKPLVALSYVTLYLLSSVFLSQLSYPIGSWAV [Lvp1]", "MEASURED_TARGET": "carbapenem-resistant P. aeruginosa clinical isolate CFS-1292", "RELATION_SYMBOL": ">", "MEAS_VALUE": 64}
{"CONSTRUCT_SEQUENCE": "MKMRKRTDKRVFTRTAAKSKKVNIAPKIFRGGIRL [Unp1]", "MEASURED_TARGET": "carbapenem-resistant P. aeruginosa clinical isolate CFS-1292", "RELATION_SYMBOL": "=", "MEAS_VALUE": 4}
{"CONSTRUCT_SEQUENCE": "MRPVKRSRVNKARSAGKFRKQVGKTKMANLRSNPMRGGWRL [HH3930]", "MEASURED_TARGET": "carbapenem-resistant P. aeruginosa clinical isolate CFS-1292", "RELATION_SYMBOL": "=", "MEAS_VALUE": 2}
{"CONSTRUCT_SEQUENCE": "MKRKPMSRKASQKTFKKNTGVQRMNHLNPRAMRGGIRL [Bdp1]", "MEASURED_TARGET": "carbapenem-resistant P. aeruginosa clinical isolate CFS-1292", "RELATION_SYMBOL": "=", "MEAS_VALUE": 16}
{"CONSTRUCT_SEQUENCE": "MKRRKMTRKGSKRLFTATADKTKSINTAPPPMRGGIRL [Chp7]", "MEASURED_TARGET": "carbapenem-resistant P. aeruginosa clinical isolate CFS-1292", "RELATION_SYMBOL": "=", "MEAS_VALUE": 16}
